The origin of these recorded values is paper PMC12207590.

Hi there, I'd appreciate the recorded MATE2 for every entry that follows.
Molecular target: MATE2K (Homo sapiens, UniProt Q86VL8)
Sequence (Q86VL8 1-566 isoform Q86VL8-3): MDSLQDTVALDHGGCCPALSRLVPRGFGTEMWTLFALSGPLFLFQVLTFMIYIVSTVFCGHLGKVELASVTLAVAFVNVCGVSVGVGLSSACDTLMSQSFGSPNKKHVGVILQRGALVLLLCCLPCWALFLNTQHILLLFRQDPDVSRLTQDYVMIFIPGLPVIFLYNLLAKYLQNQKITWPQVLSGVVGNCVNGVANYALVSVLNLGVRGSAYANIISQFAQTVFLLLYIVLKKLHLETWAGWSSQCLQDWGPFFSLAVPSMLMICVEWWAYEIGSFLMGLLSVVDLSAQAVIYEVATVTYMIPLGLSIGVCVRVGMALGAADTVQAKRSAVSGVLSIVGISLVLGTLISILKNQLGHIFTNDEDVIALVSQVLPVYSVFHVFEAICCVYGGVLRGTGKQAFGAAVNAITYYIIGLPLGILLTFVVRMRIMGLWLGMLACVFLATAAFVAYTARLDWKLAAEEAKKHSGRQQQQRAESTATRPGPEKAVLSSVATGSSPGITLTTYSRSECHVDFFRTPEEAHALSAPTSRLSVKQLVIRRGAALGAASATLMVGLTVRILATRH
Assay: Uptake ratio in MATE2K-overexpressing HEK293 cells vs empty vector (2.5 μM, 1 min, HPLC-MS/MS)
Format: cell-based
Details: uptake ratio MATE2K-overexpressing vs empty-vector HEK293 cells, 2.5 μM, 1 min; mean
Numbers only.

C[N+]1(C)CCC[C@H]1C(=O)[O-] [Stachydrine]: 1.31
N[C@@H](CC(=O)N1CCn2c(nnc2C(F)(F)F)C1)Cc1cc(F)c(F)cc1F: 2.77
CNCc1ccc(-c2[nH]c3cc(F)cc4c3c2CCNC4=O)cc1: 2.03
CCCOC(C(=O)OC1CCN(C)CC1)(c1ccccc1)c1ccccc1: 1.07

Please look at the following compound next.
Prompt: Respond only with MATE2 recorded for Cc1ncc(CO)c(CO)c1O
Response: 1.18

* * *

Target: UniProt Q96FL8
Assay: Uptake ratio in MATE1-overexpressing HEK293 cells vs empty vector (2.5 μM, 1 min, HPLC-MS/MS)
Format: cell-based
Measured quantity: MATE1 ratio
Numbers only.

N=C(N)c1ccc2cc(OC(=O)c3ccc(N=C(N)N)cc3)ccc2c1: 5.45
COc1ccc2c3c([nH]c2c1)C(C)=NCC3: 1.19
COc1ccc2[nH]c3c(c2c1)CCNC3: 1.28

Below is a list of compounds. For each, state its recorded MATE1 ratio.
1. Cc1nc2n(c(=O)c1CCN1CCC(c3noc4cc(F)ccc34)CC1)CCCC2
2. COc1ccc2c3c1O[C@H]1C[C@@H](O)C=C[C@@]31CCN(C)C2
3. c1c2c(cc3c1OCO3)-c1cc3ccc4c(c3c[n+]1CC2)OCO4

Response:
1.07
1.18
9.90

* * *

Biological target: MATE2K (Homo sapiens)
Assay: Uptake ratio in MATE2K-overexpressing HEK293 cells vs empty vector (2.5 μM, 1 min, HPLC-MS/MS)
Type: cell-based
Conditions: fold uptake over empty vector, 2.5 μM, 1 min
Measured quantity: MATE2K ratio

// solved cases for MATE2K ratio follow
O=c1[nH]c2ccccc2n1C1CCN(CCCC(c2ccc(F)cc2)c2ccc(F)cc2)CC1 [Pimozide]: 0.76
CCN1CCCC1CNC(=O)c1cc(S(=O)(=O)CC)c(N)cc1OC [Amisulpride (R), Amisulpride]: 7.40
O=C(O[C@H]1C[N+]2(CCCOc3ccccc3)CCC1CC2)C(O)(c1cccs1)c1cccs1 [Aclidinium]: 1.17

Below is a list of compounds. For each, state its recorded MATE2K ratio.
1. CCC1(C2=NCCN2)Cc2ccccc2O1 (stereo not shown)
2. CC(C)NC(=N)NC(=N)Nc1ccc(Cl)cc1
3. CCN(CC)CCNC(=O)c1ccc(NS(C)(=O)=O)cc1 [Sematilide]
4. COc1ccc(CC2c3cc(OC)c(OC)cc3CC[N+]2(C)CCC(=O)OCCCCCOC(=O)CC[N+]2(C)CCc3cc(OC)c(OC)cc3C2Cc2ccc(OC)c(OC)c2)cc1OC (stereo not shown)
5. Clc1cccc(Cl)c1N=C1NCCN1
6. Oc1ncnc2[nH]ncc12
7. CC1(C)S[C@@H]2[C@H](NC(=O)[C@H](N)c3ccc(O)cc3)C(=O)N2[C@H]1C(=O)O

Response:
1.72
3.98
6.42
1.10
1.17
0.85
0.67

* * *

Target: MATE1 (Homo sapiens, UniProt Q96FL8)
Sequence (Q96FL8 whole entry): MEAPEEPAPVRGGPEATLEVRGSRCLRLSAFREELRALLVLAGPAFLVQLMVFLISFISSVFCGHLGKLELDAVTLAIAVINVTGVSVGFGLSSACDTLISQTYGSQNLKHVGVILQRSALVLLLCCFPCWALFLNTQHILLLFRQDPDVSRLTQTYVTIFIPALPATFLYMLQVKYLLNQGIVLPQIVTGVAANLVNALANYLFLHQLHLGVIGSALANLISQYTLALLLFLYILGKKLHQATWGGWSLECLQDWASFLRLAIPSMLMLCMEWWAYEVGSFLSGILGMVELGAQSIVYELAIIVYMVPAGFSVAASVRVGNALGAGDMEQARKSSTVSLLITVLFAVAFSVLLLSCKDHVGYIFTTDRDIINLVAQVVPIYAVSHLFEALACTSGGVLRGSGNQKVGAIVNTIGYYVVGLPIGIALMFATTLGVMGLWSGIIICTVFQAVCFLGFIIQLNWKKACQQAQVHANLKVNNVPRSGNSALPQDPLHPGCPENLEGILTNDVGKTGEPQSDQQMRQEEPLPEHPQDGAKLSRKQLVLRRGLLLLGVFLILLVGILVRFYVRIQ
Experiment: Uptake ratio in MATE1-overexpressing HEK293 cells vs empty vector (2.5 μM, 1 min, HPLC-MS/MS)
Type: cell-based
Checkbox rule: MATE1 ratio lower than 1 = yes; MATE1 ratio not lower than 1 = no.

Here are 3 molecules together with their reported answers.
Nc1ccc(N)cc1: no
CCC(Cc1ccc2c(c1)OCO2)NC (stereo not drawn): no
NC12CC3CC(CC(C3)C1)C2: no

Prompt: Here's an entry: O=c1cccc2n1C[C@@H]1CNC[C@H]2C1 . Is its MATE1 ratio below 1?
Response: no

Prompt: Here's an entry: CC(C)c1cccc(C(C)C)c1O . Is its MATE1 ratio below 1?
Response: yes

Prompt: Here's an entry: C[C@@H]1Cc2c(Cl)cc(C(=O)N[C@@H](Cc3ccccc3)C(=O)O)c(O)c2C(=O)O1 . Is its MATE1 ratio below 1?
Response: no

* * *

Biological target: UniProt Q96FL8
Assay: Uptake ratio in MATE1-overexpressing HEK293 cells vs empty vector (2.5 μM, 1 min, HPLC-MS/MS)
Format: cell-based
Settings: Table S1; 2.5 μM, 1 min
Measured quantity: MATE1 ratio in this study
One number for each entry.

C[C@]12CC[C@@H]3c4ccc(OS(=O)(=O)O)cc4CC[C@H]3[C@@H]1CCC2=O [Estrone-3-sulfate]: 4.80
CNC(=O)c1cccnc1 [Methylnicotinamide, N-Methylnicotinamide]: 33.89
NCCc1ccc(O)cc1 [Tyramine]: 10.06

Below is a list of compounds. For each, state its recorded MATE1 ratio in this study.
1. CN/C(=N\CCSCc1nc[nH]c1C)NC#N [Cimetidine]
2. CC(C)(C)NCC(O)c1ccc(O)c(CO)c1 (stereo not drawn) [Salbutamol]
3. Cc1ncc(C[n+]2csc(CCO)c2C)c(N)n1 [Thiamine]

Response:
11.52
7.94
33.42

Below is a list of compounds. For each, state its recorded MATE1 ratio in this study.
1. CC[C@@H](CO)NCCN[C@@H](CC)CO [Ethambutol]
2. CC(C)(C)NCC(O)c1ccc(O)c(CO)c1 [Salbutamol (S), Salbutamol]
3. CC[C@@]1(O)C(=O)OCc2c1cc1n(c2=O)Cc2cc3c(CN(C)C)c(O)ccc3nc2-1 [Topotecan]
4. N=C(N)N1CCc2ccccc2C1 [Debrisoquine]
5. Nc1ccn([C@@H]2O[C@H](CO)[C@@H](O)C2(F)F)c(=O)n1 [Gemcitabine]
6. Nc1nc(=O)n([C@@H]2CS[C@H](CO)O2)cc1F [Emtricitabine]
7. CN1CC(=O)NC1=N [Creatinine]

Response:
1: 14.14; 2: 8.88; 3: 2.53; 4: 8.16; 5: 1.29; 6: 3.22; 7: 0.83

Below is a list of compounds. For each, state its recorded MATE1 ratio in this study.
1. CC1(C)N=C(N)N=C(N)N1c1ccc(Cl)cc1 [Cycloguanil]
2. CCS(=O)(=O)N1CC(CC#N)(n2cc(-c3ncnc4[nH]ccc34)cn2)C1 [Baricitinib]

Response:
[21.02, 0.82]

* * *

Target: MATE1 (Homo sapiens, UniProt Q96FL8)
Test: Uptake ratio in MATE1-overexpressing HEK293 cells vs empty vector (2.5 μM, 1 min, HPLC-MS/MS)
Format: cell-based
Conditions: mean ratio of uptake in MATE1-overexpressing HEK293 cells vs empty vector; 2.5 μM, 1 min
Tick y if MATE1 (uptake ratio) is 1 or greater. Tick n if MATE1 (uptake ratio) is less than 1.

Here are 8 compounds together with their reported answers.
Cc1ccc(C(=O)Oc2ccc(C(O)CNC(C)(C)C)cc2OC(=O)c2ccc(C)cc2)cc1 (stereo not shown): n
Nc1nc(NC2CC2)c2ncn([C@H]3C=C[C@@H](CO)C3)c2n1: n
CCCNC(C)C(=O)Nc1c(C)csc1C(=O)OC (stereo not shown): y
CN1CCc2cccc3c2[C@H]1Cc1ccc(O)c(O)c1-3: y
CNCCc1ccccn1: y
COc1ccc(CC2c3cc(OC)c(OC)cc3CC[N+]2(C)CCC(=O)OCCCCCOC(=O)CC[N+]2(C)CCc3cc(OC)c(OC)cc3C2Cc2ccc(OC)c(OC)c2)cc1OC (stereo not shown): y
C[N+]12CCC(CC1)C(OC(=O)C(O)(c1ccccc1)c1ccccc1)C2 (stereo not shown): y
CC(C)(C)NCC(O)COc1cccc2c1CCC(=O)N2 (stereo not shown): y

Prompt: Check this compound for MATE1 (uptake ratio) at or above 1: CNc1c(C)n(C)n(-c2ccccc2)c1=O [4-Methylaminoantipyrine]
Response: n

Prompt: Check this compound for MATE1 (uptake ratio) at or above 1: COc1ccccc1OCCNCC(O)COc1cccc2[nH]c3ccccc3c12 [Carvedilol (S), Carvedilol]
Response: y

Prompt: Check this compound for MATE1 (uptake ratio) at or above 1: CN(C)CCc1c[nH]c2ccc(CS(=O)(=O)N3CCCC3)cc12
Response: y

Prompt: Check this compound for MATE1 (uptake ratio) at or above 1: C=CCN1C[C@H](C(=O)N(CCCN(C)C)C(=O)NCC)C[C@@H]2c3cccc4[nH]cc(c34)C[C@H]21
Response: y

* * *

Molecular target: UniProt Q86VL8
Assay: Uptake ratio in MATE2K-overexpressing HEK293 cells vs empty vector (2.5 μM, 1 min, HPLC-MS/MS)
Type: cell-based
Conditions: fold uptake over empty vector, 2.5 μM, 1 min
Measured quantity: MATE2K ratio
One number for each entry.

// solved cases for MATE2K ratio follow
NCCCC(=O)O: 0.87
CC(C)C(=O)Oc1ccc(CO)cc1[C@H](CCN(C(C)C)C(C)C)c1ccccc1: 1.02
COc1ccc(CC(C)(C)NC[C@H](O)c2cc(O)cc3c2OCC(=O)N3)cc1: 6.19

Below is a list of compounds. For each, state its recorded MATE2K ratio.
1. CC(C)(C)NCC(O)c1ccc(O)c(O)c1 (centres unmarked)
2. CCCC(=O)OC(CC(=O)[O-])C[N+](C)(C)C (centres unmarked)
3. CCc1cc2c(cc1CC)CC(NC[C@H](O)c1ccc(O)c3[nH]c(=O)ccc13)C2
4. CNC[C@H](O)c1ccc(O)c(O)c1 [Epinephrine (-), Epinephrine]

Response:
1. 5.80
2. 1.09
3. 1.88
4. 3.98

Prompt: Respond only with MATE2K ratio recorded for CC(C)C(=O)O[C@H](CC(=O)[O-])C[N+](C)(C)C
Response: 1.35
